# assayed-system: T1, Human CLDN6 (on 293T-CLDN6 cells) (human, UniProt P56747 1-220)
# T1 construct: In the killing assay it was also endogenous on OVCAR3 and OV90 cells; also called Claudin 6
# T1 sequence: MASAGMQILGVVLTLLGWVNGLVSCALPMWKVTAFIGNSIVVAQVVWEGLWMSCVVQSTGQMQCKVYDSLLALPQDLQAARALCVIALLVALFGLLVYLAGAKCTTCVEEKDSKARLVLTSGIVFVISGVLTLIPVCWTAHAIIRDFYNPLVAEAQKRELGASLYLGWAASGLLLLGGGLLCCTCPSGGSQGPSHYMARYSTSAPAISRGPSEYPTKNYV
# method-description: flow cytometry on 293T-CLDN6 cells
Reported pEC50 values for the following binders.
Conceptually, pEC50 converts a concentration in mol/L into minus its log10.

Completed entries (count: 3):
| binder | result |
| --- | --- |
| antibody M1 (scFv) (scFv, V domains shown, Tested as a prokaryotically expressed single chain antibody (scFv)) VH: EVQLVQSGAEVKKPGASVKVSCKASGYTFTGYYMNWVRQAPGQGLEWMGEINPATGSTTYNQKFKARVTITRDTSTSTAYMELSSLRSEDTAVYYCARRDYYLGSNSYALDYWGQGTLVTVSS VL: DIQMTQSPSSLSASVGDRVTITCQASQSVSNNLNWYQQKPGKAPKLLIYGASKLEDGVPSRFSGSGSGTDFTFTISSLQPEDFATYYCLQHRYMWTFGQGTKVEIK | 7.64 |
| Antibody P1 (scFv) (scFv, Prokaryotically expressed single chain antibody) scFv: EVQLVQSGAEVKKPGASVKVSCKASGYTFTGYYMNWVRQAPGQGLEWMGEINPATGSTTYNQKFKARVTITRDTSTSTAYMELSSLRSEDTAVYYCARRDYYLGSNSYALDYWGQGTLVTVSSGGGGSGGGGSGGGGSDIQMTQSPSSLSASVGDRVTITCQASQSVSNNLNWYQQKPGKAPKLLIYGASKLEDGVPSRFSGSGSGTDFTFTISSLQPEDFATYYCLQHRYLWTFGQGTKVEIK | 7.20 |
| Antibody P3 (scFv) (scFv, Prokaryotically expressed single chain antibody) scFv: EVQLVQSGAEVKKPGASVKVSCKASGYTFTGYYMNWVRQAPGQGLEWMGEINPATGSTTYNQKFKARVTITRDTSTSTAYMELSSLRSEDTAVYYCARRDYYYGSGFYAMDYWGQGTLVTVSSGGGGSGGGGSGGGGSDIQMTQSPSSLSASVGDRVTITCQASQSVSNNLNWYQQKPGKAPKLLIYGASKLEDGVPSRFSGSGSGTDFTFTISSLQPEDFATYYCQQHRFMWTFGQGTKVEIK | 6.26 |

Attention now turns to another entry.
(Q) Endpoint output: pEC50 of Antibody P4 (scFv) (scFv, Prokaryotically expressed single chain antibody) scFv: EVQLVQSGAEVKKPGASVKVSCKASGYTFTGYYMNWVRQAPGQGLEWMGEINPATGSTTYNQKFKARVTITRDTSTSTAYMELSSLRSEDTAVYYCARRDYYYGSGFYAMDYWGQGTLVTVSSGGGGSGGGGSGGGGSDIQMTQSPSSLSASVGDRVTITCQASQSVSNNLNWYQQKPGKAPKLLIYGASKLEDGVPSRFSGSGSGTDFTFTISSLQPEDFATYYCQQHRYMWTFGQGTKVEIK . Value?
(A) 6.74
